target: Drosophila Su(H) (98-523) E137V (Drosophila, UniProt P28159 98-523, E137V | R155T); assay: ITC
Sequence (P28159 98-523 E137V/R155T/N281G): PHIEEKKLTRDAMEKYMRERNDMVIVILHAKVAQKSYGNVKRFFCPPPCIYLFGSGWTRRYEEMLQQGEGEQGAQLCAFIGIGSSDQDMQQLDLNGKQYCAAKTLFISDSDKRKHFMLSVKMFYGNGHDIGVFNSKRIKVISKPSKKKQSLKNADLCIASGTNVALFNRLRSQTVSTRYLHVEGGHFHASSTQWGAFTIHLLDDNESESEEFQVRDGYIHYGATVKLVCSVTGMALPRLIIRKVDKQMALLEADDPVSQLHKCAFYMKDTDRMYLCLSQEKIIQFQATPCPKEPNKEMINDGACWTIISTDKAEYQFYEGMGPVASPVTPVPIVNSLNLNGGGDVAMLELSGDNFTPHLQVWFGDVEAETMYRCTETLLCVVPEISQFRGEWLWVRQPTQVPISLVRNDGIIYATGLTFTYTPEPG
pKd: −log10 of the molar value.
readout-type: pKd

> print(dat)
                                     binder  measurement
1  VLSTQRKRAHGVTWFPEGFRAPAAVMSR [Drosophila Notch RAM peptide (residues 1763-1790)]         6.78
